- Test system: UACC-257 melanoma
- EXPERIMENTAL_PROTOCOL: NCI tumour cell line growth inhibition, 48 h
Can you tell me TGI for the items I'm about to list?

Prompt: API: value(readout=TGI, system=UACC-257 melanoma) for record `OCCNCNc1nc(NCNCCO)nc(N(CNCCO)CNCCO)n1`
Response: 40 µM

Prompt: API: value(readout=TGI, system=UACC-257 melanoma) for record `COC(=O)/C=C/c1cc2c(cc1-c1c(C(=O)O)cc(OC)c(OC)c1OC)OCO2`
Response: > 10 µM

Prompt: API: value(readout=TGI, system=UACC-257 melanoma) for record O=C1CSC(c2cccc([N+](=O)[O-])c2)N1c1ccc(-n2c(-c3ccccc3)nc3ccccc3c2=O)cc1 (stereo not given)
Response: > 100 µM

Prompt: API: value(readout=TGI, system=UACC-257 melanoma) for record CC(=O)Nc1c(C)cc2c(nc3n2CCC3O)c1[N+](=O)[O-] (stereo not given)
Response: > 100 µM

Prompt: API: value(readout=TGI, system=UACC-257 melanoma) for record `CCOC(=O)c1ccc(N=c2sc3ccccc3nc2Nc2ccc(C(=O)OCC)cc2)cc1`
Response: > 100 µM

====

Can you tell me TGI for the items I'm about to list?
- Test system: SF-268 CNS
- EXPERIMENTAL_PROTOCOL: NCI tumour cell line growth inhibition, 48 h

Prompt: Bench note: what TGI did COc1cc(C2CC(c3ccc(Nc4ccnc5cc(Cl)ccc45)cc3)=NN2c2ccc(Cl)cc2)cc(OC)c1OC (centres undefined) show?
Response: > 100 µM

Prompt: Bench note: what TGI did `C=C(C)[C@@H]1CCC2=C[C@H](OC2=O)[C@@]2(C)C[C@@H]2C2=CC(C)=C(O2)[C@H]1O` show?
Response: > 75 µM

Prompt: Bench note: what TGI did `CCN1CCN(CC(=O)N2c3cccc4cccc(c34)N(C(=O)CN3CCN(CC)CC3)C2c2cn(-c3ccccc3)nc2-c2cccc([N+](=O)[O-])c2)CC1` show?
Response: 3.47 µM

Prompt: Bench note: what TGI did `CN(C)c1ccc(/C=c2\sc3nc4ccccc4n3c2=O)cc1` show?
Response: > 100 µM

Prompt: Bench note: what TGI did O=C1c2ccccc2C(=O)N1CC(O)COc1cccc2ccccc12 (centres undefined) show?
Response: > 100 µM

Prompt: Bench note: what TGI did `O=c1/c(=C/c2ccc(-c3ccc(Cl)cc3Cl)o2)sc2n1[C@@H](c1ccc(Cl)cc1)C=C(c1cc(F)c(Cl)cc1Cl)N=2` show?
Response: > 100 µM

Prompt: Bench note: what TGI did `CN(Cc1cc(C(C)(C)C)cc(Br)c1O)Cc1cc(C(C)(C)C)cc(Br)c1O` show?
Response: 11.2 µM

Prompt: Bench note: what TGI did `CCN(CC)c1ccc(C(=O)c2ccc(N(CC)CC)cc2)cc1` show?
Response: > 35.9 µM

Prompt: Bench note: what TGI did `O=C1C(c2c(O)[nH]c3ccc(Br)cc23)=Nc2ccccc21` show?
Response: 24.4 µM

Prompt: Bench note: what TGI did `COc1cccc(NC(=O)/C(Cc2nc3ccccc3nc2C)=N/NC(=O)C[n+]2ccccc2)c1` show?
Response: > 100 µM

Prompt: Bench note: what TGI did `O=C(OC[C@H]1O[C@H](OC(=O)c2cc(O)c(O)c(OC(=O)c3cc(O)c(O)c(O)c3)c2)[C@H](OC(=O)c2cc(O)c(O)c(OC(=O)c3cc(O)c(O)c(O)c3)c2)[C@@H](OC(=O)c2cc(O)c(O)c(OC(=O)c3cc(O)c(O)c(O)c3)c2)[C@@H]1OC(=O)c1cc(O)c(O)c(OC(=O)c2cc(O)c(O)c(O)c2)c1)c1cc(O)c(O)c(OC(=O)c2cc(O)c(O)c(O)c2)c1` show?
Response: > 25 µM

Prompt: Bench note: what TGI did `COC(=O)/C=C/c1cc2c(cc1-c1c(C(=O)O)cc(OC)c(OC)c1OC)OCO2` show?
Response: > 10 µM

Prompt: Bench note: what TGI did `CCCCCCCc1cc2c3c(nc4ccccc42)C(=O)c2cccnc2-c3n1` show?
Response: 11.8 µM

Prompt: Bench note: what TGI did `O=C(/C=C/c1ccc(C(F)(F)F)cc1)c1ccc(Nc2nc(NCCO)nc(Nc3ccc(Cl)cc3)n2)cc1` show?
Response: 18.7 µM

Prompt: Bench note: what TGI did `CC(=O)c1cc2ccccc2oc1=O` show?
Response: > 100 µM

Prompt: Bench note: what TGI did `C[C@@H]1CC[C@@H]2[C@@H](C1)O[C@@H]([C@H](C)OCc1ccccc1)SC2(C)C` show?
Response: > 100 µM

Prompt: Bench note: what TGI did `O=C1C(Cl)=C(NCc2ccco2)C(=O)c2ccccc21` show?
Response: 81.9 µM

Prompt: Bench note: what TGI did `COC(=O)Nc1nc2ccc(Br)cc2[nH]1` show?
Response: > 100 µM

Prompt: Bench note: what TGI did `O=C1C(=Cc2c(O)cc(O)cc2O)C(=O)c2ccccc21` show?
Response: > 63.1 µM

====

- Test system: NCI/ADR-RES ovarian
- EXPERIMENTAL_PROTOCOL: NCI tumour cell line growth inhibition, 48 h
Can you tell me TGI for the items I'm about to list?

Prompt: Bench note: what TGI did O=C1CC(c2ccccc2)n2cccc21 (configuration not stated) show?
Response: > 100 µM

Prompt: Bench note: what TGI did `Nn1c(Cc2ccc([N+](=O)[O-])cc2)n[nH]c1=O` show?
Response: > 100 µM

Prompt: Bench note: what TGI did `CC(C)NC(=O)CN1CCN(c2c(O)c3c(c(O)c2Cl)C(=O)C=CC3=O)CC1` show?
Response: 10.7 µM

Prompt: Bench note: what TGI did `C=C1C(=O)O[C@H]2[C@H]1CC/C(Cn1cc(-c3ccccc3C(F)(F)F)nn1)=C\CC[C@@]1(C)O[C@@H]21` show?
Response: 15.1 µM

Prompt: Bench note: what TGI did CC(C)=CC1=C2C3=C(C(=O)C4(O)Oc5c(C)c6c7c(c5OC24C)[C@@H](C)CC[C@@H]7[C@@H](C)C[C@H]6C=C(C)C)C(C)CCC3C(C)C1 (some centres not stated) show?
Response: > 100 µM

Prompt: Bench note: what TGI did `CCOC(=O)c1ccc(N=c2sc3ccccc3nc2Nc2ccc(C(=O)OCC)cc2)cc1` show?
Response: > 100 µM

Prompt: Bench note: what TGI did C=C1C2C[C@@H]3O[C@H]4C[C@H]5O[C@@]6(C[C@@H]7O[C@]8(C[C@H](C)[C@@H]9O[C@@H]%10CC(CO)O[C@@H]%10C[C@@H]9O8)C[C@H](C)[C@@H]7O6)C[C@H]5O[C@H]4[C@H](C)[C@H]3OC(=O)C[C@H]3CC[C@@H]4OC5[C@H]6O[C@]7(CC[C@H]8CC(=C)[C@H](CC[C@@H](C[C@H]1C)O2)O8)CC6O[C@@H]5[C@@H](O7)[C@H]4O3 (some centres not stated) show?
Response: > 1 µM

====

- Test system: UACC-257 melanoma
- EXPERIMENTAL_PROTOCOL: NCI tumour cell line growth inhibition, 48 h
Where a SMILES comes first, the peptide text is derived from it. The star is where a group is joined. Boc = CC(C)(C)OC(=O)*
QUANTITY_MEASURED: TGI

Prompt: API: value(readout=TGI, system=UACC-257 melanoma) for record `COc1cc(Cc2nccc3cc(OC)c(OC)cc23)c(N=NN(C)C)cc1OC`
Response: 44.9 µM

Prompt: API: value(readout=TGI, system=UACC-257 melanoma) for record `CCCCn1c2c(n(CCCC)c1=S)-c1c(n(CCCC)c(=S)n1CCCC)SSc1c(n(CCCC)c(=S)n1CCCC)-c1c(n(CCCC)c(=S)n1CCCC)SSc1c(n(CCCC)c(=S)n1CCCC)-c1c(n(CCCC)c(=S)n1CCCC)SS2`
Response: > 50 µM

Prompt: API: value(readout=TGI, system=UACC-257 melanoma) for record CC(C)=CC1=C2C3=C(C(=O)C4(O)Oc5c(C)c6c7c(c5OC24C)[C@@H](C)CC[C@@H]7[C@@H](C)C[C@H]6C=C(C)C)C(C)CCC3C(C)C1 (stereo not given in full)
Response: > 100 µM

Prompt: API: value(readout=TGI, system=UACC-257 melanoma) for record `CN(Cc1cc(C(C)(C)C)cc(Br)c1O)Cc1cc(C(C)(C)C)cc(Br)c1O`
Response: 5.85 µM

Prompt: API: value(readout=TGI, system=UACC-257 melanoma) for record `Cn1c(-c2cccc([N+](=O)[O-])c2)[n+](C)c2ccccc21`
Response: > 100 µM

Prompt: API: value(readout=TGI, system=UACC-257 melanoma) for record Cn1cc2ccccc2c1-c1nc(F)nc(OCC(=O)[C@H]2CCC3[C@@H]4CCC5=CC(=O)CC[C@]5(C)C4[C@@H](O)C[C@@]32C)n1 (stereo not given in full)
Response: 37.3 µM

Prompt: API: value(readout=TGI, system=UACC-257 melanoma) for record `CCCCCCCc1cc2c3c(nc4ccccc42)C(=O)c2cccnc2-c3n1`
Response: 3.46 µM

Prompt: API: value(readout=TGI, system=UACC-257 melanoma) for record `COc1cccc(NC(=O)/C(Cc2nc3ccccc3nc2C)=N/NC(=O)C[n+]2ccccc2)c1`
Response: > 100 µM

Prompt: API: value(readout=TGI, system=UACC-257 melanoma) for record CCCCCCCCCCNC(=O)CCC(NC(=O)c1ccc(N(C)Cc2cnc3nc(N)nc(N)c3n2)cc1)C(=O)NCCCCCCCCCC (stereo not given)
Response: > 60.1 µM

Prompt: API: value(readout=TGI, system=UACC-257 melanoma) for record `Cc1nc2c(=O)n(C)ncc2[nH]1`
Response: > 100 µM

Prompt: API: value(readout=TGI, system=UACC-257 melanoma) for record COC(=O)c1ccccc1C1CN=NC12Cc1cc(C)ccc1C2=O (stereo not given)
Response: > 100 µM

Prompt: API: value(readout=TGI, system=UACC-257 melanoma) for record `COc1cc2c(cc1OCCCC(=O)Nc1ccc3ccc4cccc5ccc1c3c45)N=C[C@@H]1CCCN1C2=O`
Response: 0.104 µM

Prompt: API: value(readout=TGI, system=UACC-257 melanoma) for record COC(=O)C(Cc1c[nH]c2ccccc12)NC(=O)C(Cc1c[nH]c2ccccc12)NC(=O)C(Cc1c[nH]c2ccccc12)NC(=O)C(Cc1c[nH]c2ccccc12)NC(=O)C(Cc1c[nH]c2ccccc12)NC(=O)C(Cc1c[nH]c2ccccc12)NC(=O)C(Cc1c[nH]c2ccccc12)NC(=O)C(Cc1c[nH]c2ccccc12)NC(=O)OC(C)(C)C (stereo not given) (Boc-WWWWWWWW-OMe; configuration not given here)
Response: > 100 µM

Prompt: API: value(readout=TGI, system=UACC-257 melanoma) for record `CCN(CC)c1ccc(C(=O)c2ccc(N(CC)CC)cc2)cc1`
Response: > 59.2 µM

Prompt: API: value(readout=TGI, system=UACC-257 melanoma) for record `COC(=O)Nc1nc2ccc(Br)cc2[nH]1`
Response: > 100 µM
